meta.source: PubChem BioAssay (NCI)

TGI values for the compounds below.
Tested on: DU-145 prostate
Test: NCI tumour cell line growth inhibition, 48 h
Parameter: TGI

{"Test Smiles": "NS(=O)(=O)c1ccc(N=Nc2nc3[nH]c(=O)[nH]c(=O)c3[nH]2)cc1", "Study Target": "DU-145 prostate", "Data Value": "> 100 µM"}
{"Test Smiles": "NC(=O)NC1C(c2ccccc2)=C1c1ccccc1", "Study Target": "DU-145 prostate", "Data Value": "> 100 µM"}
{"Test Smiles": "Nc1ccc(Oc2ccc(C34CC5CC6C3CC3CC4C(C5)C6(c4ccc(Oc5ccc(N)cc5)cc4)C3)cc2)cc1", "Study Target": "DU-145 prostate", "Data Value": "> 100 µM"}
{"Test Smiles": "Clc1nc2ccccc2nc1CI", "Study Target": "DU-145 prostate", "Data Value": "30.8 µM"}
{"Test Smiles": "c1nc(OCC2CCCCC2)c2[nH]cnc2n1", "Study Target": "DU-145 prostate", "Data Value": "> 100 µM"}
{"Test Smiles": "C=C(CCC/C(C)=C/C=C/[C@]1(C)CCCc2ccoc21)CC(=O)O", "Study Target": "DU-145 prostate", "Data Value": "98.4 µM"}
{"Test Smiles": "CCCC(=O)n1[nH]c(=O)n(-c2ccc(Cl)cc2)c1=O", "Study Target": "DU-145 prostate", "Data Value": "> 100 µM"}
{"Test Smiles": "CNC(=O)N(C)N=NCCCl", "Study Target": "DU-145 prostate", "Data Value": "> 100 µM"}
{"Test Smiles": "CCCC[C@@H]1CCN2C[C@@H](O)[C@@H](O)[C@@H]2[C@H]1O", "Study Target": "DU-145 prostate", "Data Value": "> 100 µM"}
{"Test Smiles": "S=C1NC2(CCCCCC2)NN1c1ccccc1", "Study Target": "DU-145 prostate", "Data Value": "> 100 µM"}
{"Test Smiles": "CS(=O)(=O)O[C@H]1CN2C[C@@H](O)[C@@H](O)[C@H]2[C@H]1CO", "Study Target": "DU-145 prostate", "Data Value": "> 100 µM"}

---

// values below are reported TGI
Test system: CAKI-1 renal
Assay: NCI tumour cell line growth inhibition, 48 h
Parameter: TGI

{"Compound": "O/N=C/C1C(OCc2ccccc2)C(OCc2ccccc2)C(OCc2ccccc2)CN1Cc1ccccc1 (stereo unspecified)", "Parameter": "TGI", "Data Value": "> 100 µM"}
{"Compound": "O=Cc1cn(CCCCCCCCCCCCn2cc(C=O)c3ccccc32)c2ccccc12", "Parameter": "TGI", "Data Value": "> 100 µM"}
{"Compound": "COc1ccc(C(=O)C(c2ccc(OC)cc2)C2(O)C(=O)Nc3ccc([N+](=O)[O-])cc32)cc1 (stereo unspecified)", "Parameter": "TGI", "Data Value": "> 100 µM"}
{"Compound": "Cc1cc(CC(O)c2ccc(Cl)c(Cl)c2)nc(=O)[nH]1 (stereo unspecified)", "Parameter": "TGI", "Data Value": "90 µM"}
{"Compound": "CCCCS(=O)CCC(N)P(=O)(O)O (stereo unspecified)", "Parameter": "TGI", "Data Value": "> 100 µM"}
{"Compound": "O=c1[nH]c2c(nc1NC13CC4CC(CC(C4)C1)C3)c(=O)oc1ccccc12", "Parameter": "TGI", "Data Value": "46 µM"}
{"Compound": "CCCCC1=NNC(=O)C1", "Parameter": "TGI", "Data Value": "> 100 µM"}
{"Compound": "C/C(=N\\NC(=S)N1CCCCC1)c1nc2ncccc2[nH]1", "Parameter": "TGI", "Data Value": "> 100 µM"}
{"Compound": "CCOC(=O)c1c(NC(=O)c2cccs2)sc2c1CCCC2", "Parameter": "TGI", "Data Value": "> 100 µM"}
{"Compound": "O=C(O)c1ccc(Nc2c3ccccc3nc3ccccc23)cc1", "Parameter": "TGI", "Data Value": "> 100 µM"}
{"Compound": "C=CCCCCC/C=C\\[C@H](O)C#CC#C/C=C/CO", "Parameter": "TGI", "Data Value": "86.6 µM"}

---

Tested on: SK-MEL-28 melanoma
Experiment: NCI tumour cell line growth inhibition, 48 h
Reported TGI is given for each of the following compounds.
Parameter: TGI (µM)

{"Compound": "COc1cc2cc3c4c(cc(OC)c(OC)c4c2cc1OC)CCN3C(=O)OCCN1CCNCC1", "Parameter": "TGI", "Modifier": "=", "Data Value": 36.6}
{"Compound": "C=C1C(=O)O[C@@H]2C[C@@H]1CC/C(C)=C/CC/C(C)=C/CC[C@@]2(C)O", "Parameter": "TGI", "Modifier": "=", "Data Value": 49.8}
{"Compound": "O=c1cnn(C2OC(C(O)CO)C(O)C2O)c(=O)[nH]1 (stereo not given)", "Parameter": "TGI", "Modifier": ">", "Data Value": 100}
{"Compound": "S=C(Nc1ccccc1)N(/N=C/C=C/c1ccccc1)c1nnc(-c2ccccc2)c(-c2ccccc2)n1", "Parameter": "TGI", "Modifier": ">", "Data Value": 100}
{"Compound": "COc1cc(C(=O)n2c3ccc(Br)cc3c3nc4ccccc4nc32)cc(OC)c1OC", "Parameter": "TGI", "Modifier": ">", "Data Value": 100}

---

Test system: OVCAR-8 ovarian
Test: NCI tumour cell line growth inhibition, 48 h
This listing pairs compounds with measured TGI.

{"Compound": "Nc1ccc2c(c1)N(C(=O)c1cc3cc(NC(=O)c4cc5ccccc5o4)ccc3[nH]1)CC2CCl (stereo not given)", "Study Target": "OVCAR-8 ovarian", "TGI": "1.45 µM"}
{"Compound": "C=C1C(=O)OC2CCN3CC=C(COC(=O)C(C)(O)C4(CO4)C1C)C23 (stereo not given)", "Study Target": "OVCAR-8 ovarian", "TGI": "> 100 µM"}
{"Compound": "Cc1cc([N+](=O)[O-])ccc1Nc1cccc(Cl)c1C", "Study Target": "OVCAR-8 ovarian", "TGI": "30.3 µM"}
{"Compound": "N#CC(=C1C=CC(=NO)C=C1)c1ccccc1", "Study Target": "OVCAR-8 ovarian", "TGI": "12.3 µM"}
{"Compound": "Cn1nc(N)c2cc([C@@H]3Nc4ccc5[nH]ncc5c4[C@H]4C5CCC(C5)[C@@H]34)ccc21 (stereo not given in full)", "Study Target": "OVCAR-8 ovarian", "TGI": "> 88.2 µM"}
{"Compound": "O=C(Cc1ccc(/C=C/C(=O)c2ncc[nH]2)cc1)Nc1cc(F)c(F)c(F)c1", "Study Target": "OVCAR-8 ovarian", "TGI": "> 25 µM"}
{"Compound": "CC(C)(C)CC(C)(C)c1cc2c(O)c(c1)Cc1cc(C(C)(C)CC(C)(C)C)cc(c1O)Cc1cc(C(C)(C)CC(C)(C)C)cc(c1O)Cc1cc(C(C)(C)CC(C)(C)C)cc(c1O)C2", "Study Target": "OVCAR-8 ovarian", "TGI": "> 100 µM"}
{"Compound": "COC(=O)c1cc2c3c(ccc2[nH]1)N(C(=O)c1cc2cc(OC)c(OC)c(OC)c2[nH]1)CC3CCl (stereo not given)", "Study Target": "OVCAR-8 ovarian", "TGI": "> 100 µM"}
{"Compound": "COC(=O)CC(C#N)(OP1(=O)OC(c2ccccc2)C(C)N1C)c1ccccc1 (stereo not given)", "Study Target": "OVCAR-8 ovarian", "TGI": "67.1 µM"}
{"Compound": "CC1(C)COC(c2cccnc2/C=N/O)=N1", "Study Target": "OVCAR-8 ovarian", "TGI": "> 100 µM"}
{"Compound": "COc1ccc2c3c([nH]c2c1[N+](=O)[O-])C(C)=NCC3", "Study Target": "OVCAR-8 ovarian", "TGI": "> 100 µM"}
{"Compound": "O=C(O)CCC(=O)c1ccc[nH]1", "Study Target": "OVCAR-8 ovarian", "TGI": "> 100 µM"}
{"Compound": "C=C(CNCc1ccccc1)c1ccc(C(=O)Nc2ccccc2N)cc1", "Study Target": "OVCAR-8 ovarian", "TGI": "> 100 µM"}
{"Compound": "COC(=O)c1ccc(C(=O)NC(Cc2ccc(Oc3cc(CC(NC(=O)c4ccccc4C(=O)OC)C(=O)OC)ccc3OC)cc2)C(=O)OC)cc1 (stereo not given)", "Study Target": "OVCAR-8 ovarian", "TGI": "> 100 µM"}
{"Compound": "CN(C(=O)C1=CCC2(CC1)OCCO2)c1ccccc1OS(=O)(=O)C(F)(F)F", "Study Target": "OVCAR-8 ovarian", "TGI": "> 100 µM"}
{"Compound": "COc1ccc(C(C)=O)cc1N1C(=O)C2C(C1=O)C1(c3ccccc3)C(=O)C2(c2ccccc2)C(c2ccc(C)cc2)=C1c1ccc(C)cc1 (stereo not given)", "Study Target": "OVCAR-8 ovarian", "TGI": "> 100 µM"}
{"Compound": "Cc1cc(CC(O)c2ccc(Cl)c(Cl)c2)nc(=O)[nH]1 (stereo not given)", "Study Target": "OVCAR-8 ovarian", "TGI": "> 100 µM"}
{"Compound": "Cn1cc(CO)c2c1C(=O)C=C(N1CC1)C2=O", "Study Target": "OVCAR-8 ovarian", "TGI": "3.58 µM"}
{"Compound": "CC1=C(C(=O)Nc2ccccc2)C(c2ccccc2)C(C(=O)Nc2ccccc2)=C(C)N1", "Study Target": "OVCAR-8 ovarian", "TGI": "> 100 µM"}
{"Compound": "CN(C)N=Nc1ccc(NC=O)cc1", "Study Target": "OVCAR-8 ovarian", "TGI": "> 100 µM"}
